experiment: Pharmacokinetics test using mice; type: in vivo; settings: male, Balb/C, mouse, plasma, iv, 1 mg/kg, IV (1 mg/kg), read-out: Vd
Measurement Name: Vd
Note: a bare number is incomplete; add the unit.

Reported Vd for `Nc1ncc(-c2cc(-c3cnn(CC(F)(F)F)c3)ccc2F)nc1C(=O)N[C@@H]1CNC[C@@H](F)C1` : what is it? 6.59 L/kg

====

This listing pairs molecules with measured IC50.
tested on: human breast cancer cell line MCF-7; assay: Cancer cell growth inhibition test (CellTiter-Glo); assay type: cell-based; settings: MCF-7, 72 hours, combination with doxorubicin; read-out: Administered in combination with doxorubicin (IC50)
A complete answer gives the number and then names the unit.

Nc1ncc(-c2ccnc(-c3cnn(CC(F)(F)F)c3)c2)nc1C(=O)N[C@@H]1CNCC(F)(F)C1 : 910 nM
CC(C)(O)Cn1cc(-c2cc(-c3cnc(N)c(C(=O)N[C@@H]4CNCC(F)(F)C4)n3)c(F)cn2)cn1 : 910 nM
Nc1ncc(-c2ccnc(-c3cnn(CC(F)(F)F)c3)c2)nc1C(=O)N[C@@H]1CNC[C@@H](F)C1 : 3050 nM

The record that follows has no IC50 shown yet.
Form field: IC50 recorded for `Nc1ncc(-c2cc(-c3cnn(CC(F)(F)F)c3)ncc2F)nc1C(=O)N[C@@H]1CNCC(F)(F)C1` with human breast cancer cell line MCF-7 (enter value) 670 nM

Data origin: patent US20250188059A1
